Target: 17β-hydroxysteroid dehydrogenase type 2 (17β-HSD type 2) (Homo sapiens)
Construct: expressed in transfected cells; host or cells: MCF-7
Sequence (P37059 whole entry): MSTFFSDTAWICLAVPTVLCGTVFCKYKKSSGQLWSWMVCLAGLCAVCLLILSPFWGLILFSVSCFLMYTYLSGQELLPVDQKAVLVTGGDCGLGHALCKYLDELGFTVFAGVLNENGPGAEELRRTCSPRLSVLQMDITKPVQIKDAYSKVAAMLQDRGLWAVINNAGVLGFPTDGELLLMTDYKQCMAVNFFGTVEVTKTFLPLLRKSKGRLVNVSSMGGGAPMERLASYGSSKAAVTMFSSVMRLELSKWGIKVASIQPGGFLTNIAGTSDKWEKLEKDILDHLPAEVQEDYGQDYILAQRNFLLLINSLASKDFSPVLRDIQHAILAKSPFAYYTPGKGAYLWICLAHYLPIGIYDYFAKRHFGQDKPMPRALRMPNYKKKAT
Test: Inhibition of 17β-HSD type 2 in MCF-7 cells stably expressing the isoenzyme (tritium labeled estradiol conversion, HPLC)
Format: cell-based
Conditions: MCF7; 1 μM test compound; MCF-7 cells expressing 17β-HSD type 2; 2 nM tritium labeled estradiol; read-out: % Inhibition HSD2 1 μM
Excerpt: Biological Testing Materials and Methods 1. Inhibition of the 17β-hydroxysteroid dehydrocienase type 1, type 2 and type 3 enzyme The compounds were screened in respect of 17β-HSD enzyme activity in vitro on established MCF-7 cell lines, each stably expressing one of the respective 17β-HSD isoenzymes. The interconversion of substrate by each isoenzyme and the 17β-HSD inhibiting activity of chemical compounds in these cell lines were detected by HPLC system. […]
parameter: inhibition at 1 µM (%)

COc1cccc(-c2nc3sc4c(O)cccc4c3c(=O)n2Cc2ccccc2)c1 [No. 83] = 26.1
COCCn1c(-c2cc(OC)c(OC)c(OC)c2)nc2sc3c(c2c1=O)CCCC3 [No. 108] = 9.6
CCCc1nc2sc3c(OC(C)=O)cccc3c2c(=O)n1Cc1ccc(Br)o1 [No. 106] = 50
COCCn1c(-c2cccs2)nc2sc3c(c2c1=O)CCC(Br)C3=O (stereo not drawn) [No. 76] = 44.6
COc1ccc(-c2nc3sc4c(Oc5ccccc5)c(C)ccc4c3c(=O)n2Cc2ccccc2)cc1 [No. 21] = -0.8
O=c1c2c3c(sc2nc(CO)n1-c1ccccc1)CCCC3 [No. 38] = 11.4

a = COc1ccc(-c2nc3sc4c(c3c(=O)n2Cc2ccccc2)CCC(Br)(Br)C4=O)cc1 [No. 147]
b = COc1ccc(-c2nc3sc4c(c3c(=O)n2-c2ccccc2)CCCC4=O)cc1 [No. 23]
In: Please tell me which of the two, a or b , has the higher reported inhibition at 1 µM value. Reply briefly: the label of your chosen item.
Out: b

a = COc1cc(-c2nc3sc4c(c3c(=O)n2Cc2ccccc2)C(C)CCC4=O)cc(OC)c1OC (stereo not drawn) [No. 684]
b = COc1cc(-c2nc3sc4c(c3c(=O)n2CC(C)C)CCC(Br)C4=O)cc(OC)c1OC (stereo not drawn) [No. 115]
c = O=c1c2c(nc(-c3cccs3)n1CCO)sc1c(O)c(Br)ccc12 [No. 149]
In: List from greatest to least inhibition at 1 µM. Form entry: labels listed in requested order.
Out: c, b, a

1 = COc1cccc(-c2nc3sc4c(c3c(=O)n2Cc2ccccc2)CCCC4)c1 [No. 78]
2 = O=c1c2c(nc(-c3ccc(Br)s3)n1Cc1ccccc1)sc1c(O)cccc12 [No. 68]
3 = COc1cccc(-c2nc3sc4c(c3c(=O)n2Cc2ccccc2)CCC(Br)(Br)C4=O)c1 [No. 81]
4 = COCCn1c(-c2cc(OC)c(OC)c(OC)c2)nc2sc3c(c2c1=O)CCCC3=O [No. 109]
5 = COc1cc(-c2nc3sc4c(O)ccc(C)c4c3c(=O)n2Cc2ccccc2)c(Br)c(OC)c1OC [No. 686]
In: // ascending sort on recorded inhibition at 1 µM Put the labels in the requested order and list them out.
Out: 5, 4, 1, 2, 3
(5: 2.1%, 4: 6%, 1: 9.1%, 2: 15.5%, 3: 32.1%)
